Measured pIC50 accompanies every entry in the list below.
Assay: Cytotoxic activity against human fibroblasts assessed as reduction in cell viability incubated for 48 hrs by MTT assay
Format: cell-based
Conditions: Fibroblast
pIC50: −log10 of the molar value.

{"compound": "CCCCCCCCCCCC(=O)OC[C@@]1(C)CCC[C@]2(C)[C@@H]1CC[C@@]13C=C[C@@](C)(CC[C@H]12)C3", "pIC50": 4.28}
{"compound": "CCCCCCCCCCCCCC(=O)OC[C@@]1(C)CCC[C@]2(C)[C@@H]1CC[C@@]13C=C[C@@](C)(CC[C@H]12)C3", "pIC50": 4.21}
{"compound": "C[C@]12C=C[C@@]3(CC[C@@H]4[C@@](C)(COC(=O)/C=C/c5cccc(Cl)c5)CCC[C@@]4(C)[C@@H]3CC1)C2", "pIC50": 4.82}
{"compound": "Cc1c(OCC(F)(F)F)ccnc1C[S+]([O-])c1nc2ccccc2[nH]1 (centres undefined)", "pIC50": 3.54}
